Origin of values: ChEMBL document CHEMBL1149447

# testDetails: Cmax in rat
# Format: ADME, organism-based
# conditionNotes: in vivo
// label = rule met if Cmax is not less than 9000 ng/mL, otherwise rule not met

{"columns": ["compound", "classification"],
 "data": [
  ["COc1cc(OC)cc(C(CC(=O)O)Cc2csc(CCCc3ccc4c(n3)NCCC4)n2)c1 (configuration not stated)", "rule not met"],
  ["O=C(O)CC(Cc1nc(CCCc2ccc3c(n2)NCCC3)no1)c1ccc2c(c1)OCO2 (racemic)", "rule met"],
  ["O=C(O)CC(Cc1csc(CCCc2ccc3c(n2)NCCC3)n1)c1ccc2c(c1)OCO2 (configuration not stated)", "rule met"],
  ["COCc1ncc(C(CC(=O)O)Cc2csc(CCCc3ccc4c(n3)NCCC4)n2)s1 (configuration not stated)", "rule not met"],
  ["COc1ccc(C(CC(=O)O)Cc2csc(CCCc3ccc4c(n3)NCCC4)n2)cn1 (configuration not stated)", "rule not met"],
  ["O=C(O)CC(Cc1csc(CCCc2ccc3c(n2)NCCC3)n1)c1cnc(C2CC2)s1 (configuration not stated)", "rule met"]
]}
